- assay-details: Stability of compounds in enzyme assay buffer
- Format: physicochemical
- measurement-parameters: 100 mM Tris–HCl pH 8.0 assay buffer, DMSO stock
measurement-kind: Stability in the assay buffer / of dissolved compound

O=C(/C(=C1\N(Cc2ccc(Cl)nc2)CCN1Cc1cnc(Cl)s1)[N+](=O)[O-])C(Cl)(Cl)[N+](=O)[O-] [19 (vz0914)]: less stable
ClC=C(n1nnc2ccccc21)n1nnc2ccccc21 [8 (vz0882)]: less stable
O=C(C(=C1N(Cc2ccc(Cl)nc2)CCN1Cc1ccc(Cl)nc1)[N+](=O)[O-])C(Cl)(Cl)[N+](=O)[O-] [18 (vz0909)]: less stable
